List of APOE RNA (% UTC) values.
# Tested on: human APOE RNA
# experiment_summary: Dose-dependent reduction of human APOE RNA in HepG2 cells, electroporation, 20,000 cells per well, average of GAPDH- and PPIA-normalized results (Example 4, Table 12)
# Format: cell-based
# assay_context: 512 nM, HepG2, 20,000 cells per well
Strand notation (5' to 3'): a small letter for the sugar, then the base; units joined by * are phosphorothioate-linked, units joined directly phosphodiester-linked; [ ] holds rarer units or linkages, { } end groups; capitals alone tell only the bases. [ms] = mesyl phosphoramidate linkage; e = 2'-O-(2-methoxyethyl) (MOE); k = constrained ethyl (cEt); [5mC] = 5-methylcytosine; d = 2'-deoxy (DNA)

substance: 1778128: modified oligonucleotide complementary to human APOE RNA (eA*e[5mC]eTeTkGkG*dT*dG[ms]dA[ms]dA*dT*d[5mC]*dT*dT*dT*dA[ms]kTeT*eA*eA; antisense) [compound 1778128]
APOE RNA (% UTC): 37
//
substance: 1757575 (eA*e[5mC]eTeT*kG*kG*dT*dG[ms]dA[ms]dA[ms]dT*d[5mC]*dT*dT*dT*dA[ms]kT*eT*eA*eA; antisense) [Compound 1757575]
APOE RNA (% UTC): 47
//
substance: 1778111: modified oligonucleotide complementary to human APOE RNA (eA*e[5mC]eTeTeG*kG*dT*dG[ms]dA[ms]dA*dT*d[5mC]*dT*dT*dT*dA[ms]eTeT*eA*eA; antisense) [compound 1778111]
APOE RNA (% UTC): 43
//
substance: 1746809 (k[5mC]*dT[ms]kT*dG[ms]kG*dT[ms]dG[ms]dA[ms]dA[ms]dT*d[5mC]*dT*dT*dT*dA[ms]dT*dT[ms]kA*kA*kA; antisense) [Compound 1746809]
APOE RNA (% UTC): 34
//
substance: 1785599: modified oligonucleotide complementary to human APOE RNA (k[5mC]*kT*kT*dG[ms]dG[ms]dT[ms]dG[ms]dA[ms]dA[ms]dT[ms]d[5mC]*dT*dT*dT*dA*dT*kT*kA*dA[ms]kA; antisense) [compound 1785599]
APOE RNA (% UTC): 43
//
substance: 1785617: modified oligonucleotide complementary to human APOE RNA (k[5mC]*dT[ms]dT[ms]kG*dG[ms]kT*dG[ms]dA[ms]dA[ms]dT[ms]d[5mC]*dT*dT*dT*dA*dT*kT*kA*dA[ms]kA; antisense) [compound 1785617]
APOE RNA (% UTC): 32
//
substance: Aes^mCeoTeoTesGesGksTdsGdzAdzAdzTds^mCdsTdsTdsTdsAdzTksTksAesAe (eA*e[5mC]eTeT*eG*kG*dT*dG[ms]dA[ms]dA[ms]dT*d[5mC]*dT*dT*dT*dA[ms]kT*kT*eA*eA) [Compound No. 1757576]
APOE RNA (% UTC): 40
//
substance: ^mCksTksTksGdzGdzTdzGdzAdzAdzTds^mCdsTdsTdsTdsAdsTdsTksAksAdzAk (antisense k[5mC]*kT*kT*dG[ms]dG[ms]dT[ms]dG[ms]dA[ms]dA[ms]dT*d[5mC]*dT*dT*dT*dA*dT*kT*kA*dA[ms]kA) [Compound No. 1785602]
APOE RNA (% UTC): 36
//
substance: 1778131: modified oligonucleotide complementary to human APOE RNA (eA*e[5mC]eTeTeGkG*dT*dG[ms]dA[ms]dA*dT*d[5mC]*dT*dT*dT*dA[ms]kTkT*eA*eA; antisense) [compound 1778131]
APOE RNA (% UTC): 36
//
substance: 1785598: modified oligonucleotide complementary to human APOE RNA (k[5mC]*kT*kT*dG[ms]dG[ms]dT[ms]dG[ms]dA[ms]dA[ms]dT*d[5mC]*dT*dT*dT*dA*dT[ms]kT*kA*dA[ms]kA; antisense) [compound 1785598]
APOE RNA (% UTC): 36
//
substance: 1778130: modified oligonucleotide complementary to human APOE RNA (eA*e[5mC]eTeTeG*kG*dT*dG[ms]dA[ms]dA*dT*d[5mC]*dT*dT*dT*dA[ms]kTkT*eA*eA; antisense) [compound 1778130]
APOE RNA (% UTC): 45
